Below: a set of entries, each annotated with reported Rate of increase or decrease.
Test: GC/MS of serum sample: time from blood collection to centrifugation (Table G)
Format: physicochemical, human
Settings: detection intensity relative to 1 at 15 minutes, blood collection to centrifugation, after 4 hours
# answer = number (no unit)

>>> df
                                  molecule  observed
0                           O=C(O)c1ccccc1      1.30
1            Oc1ccccn1 [2-Hydroxypyridine]      2.55
2  CC(O)(CC(=O)O)C(=O)O (stereo not shown)      2.01
3                           CC(=O)NCC(=O)O      0.68
4                       Cc1ncc(CO)c(CN)c1O      1.52

Proceeding to the next molecule to report its Rate of increase or decrease.
Enquiry: Recorded Rate of increase or decrease of O=C1CCNC(=O)N1 [Dihydrouracil] , please.
Return: 3.17

---

Assay: GC/MS of blood plasma sample: number of times of freezing and thawing (Table C)
Assay type: physicochemical, human
Conditions: detection intensity relative to 1 at 2 times, freezing and thawing 10 times
// classify: if (Rate of increase or decrease < 2) yes (1) else no (0)

Enquiry: Dear colleague, could you confirm whether Rate of increase or decrease of CCCCCCCCCCCCCCCCO [1-Hexadecanol (cetanol), 1-Hexadecanol] falls below 2? Thanks.
Return: yes (1)

---

Experiment: LC/MS of serum sample: number of times of freezing and thawing (Table M)
Assay type: physicochemical, human
Conditions: serum sample, LC/MS; detection intensity changed by 30% or more vs 2 times of freezing and thawing
endpoint label: Number of times when compound is affected (times)
Report the value in times with no unit label.

Example results:
compound	observed
CN(C)C(N)=NCCC[C@H](N)C(=O)O	6
Nc1ccn([C@@H]2O[C@H](CO)[C@@H](O)[C@H]2O)c(=O)n1	4
N[C@@H](CSSC[C@H](N)C(=O)O)C(=O)O	4

Enquiry: Recorded Number of times when compound is affected of CC(C)C[C@H](N)C(=O)O , please.
Return: 6

Enquiry: Recorded Number of times when compound is affected of N[C@@H](Cc1ccc(O)cc1)C(=O)O , please.
Return: 6

Enquiry: Recorded Number of times when compound is affected of C[C@@H](O)[C@H](N)C(=O)O , please.
Return: 6

---

Assay: GC/MS of blood plasma sample: time from blood collection to cooling of blood (Table B)
Assay type: physicochemical, human
Set-up: key: detection intensity relative to 1 at cooling time ≤1 min
Conditions: different from individual to individual, individuals with increase, relative to 1 at 1 minute or less, collection to cooling 5 minutes
endpoint label: Rate of increase or decrease (first value, increase)
# answer = number (no unit)

Example results:
                                   molecule  observed
0                         O=C(O)/C=C\C(=O)O      1.38
1  OC[C@H]1O[C@@](CO)(O[C@H]2O[C@H](CO)[C@@H](O)[C@H](O)[C@H]2O)[C@@H](O)[C@@H]1O      2.20
2   NC(=O)NC1NC(=O)NC1=O (stereo not shown)      1.30

Proceeding to the next molecule to report its Rate of increase or decrease (first value, increase).
Enquiry: Recorded Rate of increase or decrease (first value, increase) of CC(=O)N[C@@H](CO)C(=O)O , please.
Return: 1.64

These entries and their values trace back to patent US20220146526A1.
